System: PPARg:RXRa 270nM:90nM, anti-RXR (NR concentration 270 nM, RXRa partner concentration 90 nM)
test_method_notes: PBM binding z-score (relative to random genomic background probes); higher = stronger binding; sequences stand for … in GC…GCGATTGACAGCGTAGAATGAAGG
Listing of entries alongside the reported PBM binding z-score.
Just the number, please, no unit after it.

See these solved cases before continuing.
CCTTACGGGTCAAGGGTATAGCACGGGTGGTACG: 5.23
TCATATAGGTAAAGTTGAAAGTCGAACGATATGA: 3.23
CGAACTAGGTCAGAACAGGACGGTGAAGGATGAT: 4.11
TGTCAAAGTTCAAAGGTAACGTATGTATCCACAC: 7.61
CTCGAAAGGTCCTGCTCAGGTGAGTATACCAAAC: 0.119
ATATGTAGGTTATTGGGTCATTCAGTTTGCGCAT: 6.41

Here is the next item to consider.
q: Supply reported PBM binding z-score belonging to this sequence: "TCTATCAGTTGATTAGGGCAACCGAAACAGCGGA"
a: 1.61

Data origin: the supplement of paper PMC6555819
